Tested on: NCI-H2347
Assay: relative viability (nuclei count vs DMSO), 5 days (fraction); higher = more cells survive
Settings: first compound 0.2 µM
metric: relative viability
# output: bare number, no unit

compound: CN1CCN(CCOc2cc(OC3CCOCC3)c3c(Nc4c(Cl)ccc5c4OCO5)ncnc3c2)CC1 [Saracatinib] + C[C@@H](Oc1cc(-c2cnn(C3CCNCC3)c2)cnc1N)c1c(Cl)ccc(F)c1Cl [Crizotinib] (partner 1 µM)
assayed_system: NCI-H2347
metric: relative viability
meas_value: 0.686

compound: CN1CCN(CCOc2cc(OC3CCOCC3)c3c(Nc4c(Cl)ccc5c4OCO5)ncnc3c2)CC1 [Saracatinib] + O=C(CCCCCCC(=O)Nc1ccccc1)NO [Vorinostat] (partner 1 µM)
assayed_system: NCI-H2347
metric: relative viability
meas_value: 0.413

compound: CCNC(=O)c1noc(-c2cc(C(C)C)c(O)cc2O)c1-c1ccc(CN2CCOCC2)cc1 [Luminespib] + COc1cccc2cc(-c3nc([C@H]4CC[C@H](C(=O)O)CC4)n4ncnc(N)c34)[nH]c12 [OSI-027] (partner 0.5 µM)
assayed_system: NCI-H2347
metric: relative viability
meas_value: 0.227

Next compound, relative viability to be filled in.
Query: Missing value: relative viability, NCI-H2347, entry CN1CCN(CCOc2cc(OC3CCOCC3)c3c(Nc4c(Cl)ccc5c4OCO5)ncnc3c2)CC1 [Saracatinib] + Cc1nc(NC(=O)N2CCC[C@H]2C(N)=O)sc1-c1ccnc(C(C)(C)C(F)(F)F)c1 [Alpelisib] (partner 2 µM) . Fill in?
Reply: 0.835
